# systemTested: Recombinant human integrin αVβ5 (Homo sapiens, UniProt P06756+P18084)
# Sequence (P06756 31-992 limits assumed): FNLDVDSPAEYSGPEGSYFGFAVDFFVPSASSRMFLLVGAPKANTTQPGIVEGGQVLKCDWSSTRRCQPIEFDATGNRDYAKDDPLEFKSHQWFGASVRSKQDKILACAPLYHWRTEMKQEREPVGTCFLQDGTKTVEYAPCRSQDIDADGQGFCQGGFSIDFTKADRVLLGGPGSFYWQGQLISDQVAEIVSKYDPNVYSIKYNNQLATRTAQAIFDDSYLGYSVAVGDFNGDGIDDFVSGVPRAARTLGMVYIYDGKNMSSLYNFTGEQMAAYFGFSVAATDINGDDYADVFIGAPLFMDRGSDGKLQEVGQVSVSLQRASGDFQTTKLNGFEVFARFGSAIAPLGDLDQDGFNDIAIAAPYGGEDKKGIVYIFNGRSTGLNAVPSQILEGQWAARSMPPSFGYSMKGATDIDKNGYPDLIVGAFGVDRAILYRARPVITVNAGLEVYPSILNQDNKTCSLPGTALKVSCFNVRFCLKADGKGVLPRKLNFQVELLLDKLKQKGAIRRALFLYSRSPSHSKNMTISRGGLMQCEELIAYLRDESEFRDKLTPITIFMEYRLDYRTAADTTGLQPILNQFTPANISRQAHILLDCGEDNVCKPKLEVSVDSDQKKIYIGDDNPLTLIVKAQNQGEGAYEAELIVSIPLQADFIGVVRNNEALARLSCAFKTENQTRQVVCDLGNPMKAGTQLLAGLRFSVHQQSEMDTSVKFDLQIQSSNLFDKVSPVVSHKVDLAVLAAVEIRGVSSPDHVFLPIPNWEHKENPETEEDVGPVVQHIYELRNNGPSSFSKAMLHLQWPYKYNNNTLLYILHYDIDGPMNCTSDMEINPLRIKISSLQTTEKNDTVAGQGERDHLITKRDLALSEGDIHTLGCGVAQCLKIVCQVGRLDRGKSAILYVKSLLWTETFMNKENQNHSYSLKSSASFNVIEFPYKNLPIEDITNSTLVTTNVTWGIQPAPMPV
# Sequence (P18084 24-719 limits assumed): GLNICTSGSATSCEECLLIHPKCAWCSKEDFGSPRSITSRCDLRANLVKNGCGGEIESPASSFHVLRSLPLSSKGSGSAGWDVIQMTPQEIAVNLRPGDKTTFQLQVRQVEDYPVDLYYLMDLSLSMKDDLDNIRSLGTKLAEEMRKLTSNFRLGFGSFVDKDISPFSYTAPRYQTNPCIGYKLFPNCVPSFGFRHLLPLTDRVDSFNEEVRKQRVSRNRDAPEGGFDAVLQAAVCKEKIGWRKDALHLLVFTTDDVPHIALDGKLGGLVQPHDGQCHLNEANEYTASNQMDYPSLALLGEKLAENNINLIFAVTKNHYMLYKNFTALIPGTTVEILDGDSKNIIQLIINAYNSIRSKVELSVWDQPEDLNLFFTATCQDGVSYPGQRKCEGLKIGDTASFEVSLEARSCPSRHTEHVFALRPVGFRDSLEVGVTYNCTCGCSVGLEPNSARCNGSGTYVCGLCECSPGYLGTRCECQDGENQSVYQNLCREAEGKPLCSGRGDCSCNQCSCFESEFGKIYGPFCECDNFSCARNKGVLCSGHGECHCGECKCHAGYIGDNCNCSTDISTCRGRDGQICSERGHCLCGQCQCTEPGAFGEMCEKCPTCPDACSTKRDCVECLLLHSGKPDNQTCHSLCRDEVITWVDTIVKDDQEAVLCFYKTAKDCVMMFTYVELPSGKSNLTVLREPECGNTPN
# protocolDescription: Solid Phase Receptor Assay (SPRA) for αVβ5 function
# experimentalContext: plate-bound human vitronectin
endpointName: IC50 (nM)
Unit nM implied. Number only.

Lookup: State the recorded IC50 for this entry: Cn1nc(CC(CC(=O)O)c2cc3c(c(C(C)(C)C)c2)OCCO3)cc1OCCc1ccc2c(n1)NCCC2 (stereo not drawn) [Example 16]
Found: 0.7

Lookup: State the recorded IC50 for this entry: Cc1cc(C)n(-c2cccc(C(CC(=O)O)Cc3csc(CCc4ccc5c(n4)NCCC5)n3)c2)n1 (stereo not drawn) [Example 38]
Found: 0.7

Lookup: State the recorded IC50 for this entry: Cn1nc(CC(CC(=O)O)c2cc(C(C)(C)C)ccc2F)cc1OCCc1ccc2c(n1)NCCC2 (stereo not drawn) [Example 19]
Found: 0.6

Lookup: State the recorded IC50 for this entry: COc1ccc(C2(C(F)F)CC2)cc1C(CC(=O)O)Cc1cc(OCCc2ccc3c(n2)NCCC3)n(C)n1 (stereo not drawn) [Example 21]
Found: 290

Lookup: State the recorded IC50 for this entry: Cn1nc(CC(CC(=O)O)c2cc(C(C)(C)C)cc(C(C)(C)C(F)(F)F)c2)cc1OCCc1ccc2c(n1)NCCC2 (stereo not drawn) [Example 5]
Found: 160

Lookup: State the recorded IC50 for this entry: Cn1nc(CC(CC(=O)O)c2cc(C(C)(C)C)cc(C3(C(F)F)CC3)c2)cc1OCCc1ccc2c(n1)NCCC2 (stereo not drawn) [Example 6]
Found: 54

Lookup: State the recorded IC50 for this entry: Cn1nc(C[C@@H](CC(=O)O)c2cc3c(c(C(C)(C)C)c2)OCO3)cc1OCCc1ccc2c(n1)NCCC2 [Example 47]
Found: 0.067

Lookup: State the recorded IC50 for this entry: CC(C)(C)c1ccc(C#N)c(C(CC(=O)O)Cc2csc(CCCc3ccc4c(n3)NCCC4)n2)c1 (stereo not drawn) [Example 33]
Found: 32
